- System: H3255 cells
- Protocol Details: Inhibition of cancer cell growth, MTT assay, H3255
- Condition Info: Homo sapiens, NCI-H3255, 72 h, read-out: IC50 in H3255 cells
pIC50: −log10 of the molar value.
Property Label: pIC50

Request: Item under review: C=CC(=O)Nc1cccc(-c2cccc3cnc(Nc4ccc(N5CCN(C)CC5)nc4)nc23)c1 . Reported pIC50?
Result: < 6.30

Request: Item under review: C=CC(=O)Nc1cccc(-c2cccc3cnc(Nc4ccc(N5CCN(C)CC5=O)cc4)nc23)c1 . Reported pIC50?
Result: 6.30 to 7.00

Request: Can you look up the measured pIC50 of C=CC(=O)Nc1cccc(-c2cccc3cnc(Nc4ccc(NC5CN(CCF)C5)cc4)nc23)c1 for me?
Result: 6.30 to 7.00

Request: Which pIC50 reading was recorded for the compound C=CC(=O)Nc1cccc(-c2cccc3cnc(Nc4ccc(N5CCN(C)CC5)c(F)c4F)nc23)c1 ?
Result: < 6.30

Request: Requested field: pIC50. Item: C=CC(=O)Nc1cccc(-c2cccc3cnc(Nc4ccc(OC5CCN(CCO)CC5)cc4)nc23)c1
Result: < 6.30

Request: Item C=CC(=O)Nc1cccc(-c2cccc3cnc(Nc4ccc(N5CCN(CC(C)(C)O)CC5)cc4)nc23)c1 has what recorded pIC50?
Result: < 6.30

Request: Item under review: C=CC(=O)Nc1cccc(-c2cccc3cnc(Nc4cc(F)c(N5CCN(CCO)CC5)cc4F)nc23)c1 . Reported pIC50?
Result: < 6.30

Request: Which pIC50 value is on record for C=CC(=O)Nc1cccc(-c2cccc3cnc(Nc4ccc(N[C@H]5CCN(C)C5)cc4)nc23)c1 ?
Result: 6.30 to 7.00

Request: Fill in the blank: the reported pIC50 of C=CC(=O)Nc1cccc(-c2cccc3cnc(Nc4ccc(NC5CN(CCO)C5)cc4)nc23)c1 is ____.
Result: < 6.30

Request: Quick check: pIC50 of C=CC(=O)Nc1cccc(-c2cccc3cnc(Nc4ccc(N5CCN(C)CC5)cc4)nc23)c1 ?
Result: 6.30 to 7.00

Request: // lookup pIC50 for C=CC(=O)Nc1cccc(-c2cccc3cnc(Nc4ccc(OCCOC)cc4)nc23)c1
Result: 6.30 to 7.00

Request: Using the record for C=CC(=O)Nc1cccc(-c2cccc3cnc(Nc4ccc(NC5CCN(C)CC5F)cc4)nc23)c1 (centres unmarked) , report its pIC50.
Result: > 7.00

Request: What pIC50 value was documented for this compound, C=CC(=O)Nc1cccc(-c2cccc3cnc(Nc4ccc(NC5CCN(C)CC5)cc4F)nc23)c1 ?
Result: < 6.30

Request: For the compound shown here, C=CC(=O)Nc1cccc(-c2cccc3cnc(Nc4ccc(N5CCN(C)CC5)c(C(N)=O)c4)nc23)c1 , give the reported pIC50.
Result: < 6.30

Request: Using the record for C=CC(=O)Nc1cccc(-c2cccc3cnc(Nc4ccc(OC5CCN(C)CC5)cc4F)nc23)c1 , report its pIC50.
Result: 6.30 to 7.00

Request: Would you mind telling me what pIC50 value was observed for C=CC(=O)Nc1cccc(-c2cccc3cnc(Nc4ccc(N5CCN(CCOC)CC5)cc4)nc23)c1 ?
Result: 6.30 to 7.00

Request: For the compound shown here, C=CC(=O)Nc1cccc(-c2cccc3cnc(Nc4cc(F)c(N5CCN(CCOC)CC5)cc4F)nc23)c1 , give the reported pIC50.
Result: < 6.30

Request: pIC50 lookup needed for C=CC(=O)Nc1cccc(-c2cccc3cnc(Nc4ccc(NC5CCN(CCO)CC5)cc4)nc23)c1 , thanks.
Result: 6.30 to 7.00

Request: pIC50 lookup needed for C=CC(=O)Nc1cccc(-c2cccc3cnc(Nc4ccc(N5CCN(CCO)CC5)cc4F)nc23)c1 , thanks.
Result: < 6.30

Request: May I ask what pIC50 has been recorded for C=CC(=O)Nc1cccc(-c2cccc3cnc(Nc4ccc(N5CCN(CCO)CC5)c(F)c4F)nc23)c1 ?
Result: < 6.30

Request: Form field: reported pIC50 of C=CC(=O)Nc1cccc(-c2cccc3cnc(Nc4ccc(N5CCOCC5)cc4)nc23)c1
Result: < 6.30

Request: Given the entry C=CC(=O)Nc1cccc(-c2c(F)ccc3cnc(Nc4ccc(N5CCN(CCF)CC5)cc4)nc23)c1 , report its measured pIC50.
Result: < 6.30

Request: For the compound C=CC(=O)Nc1cccc(-c2cccc3cnc(Nc4ccc(N5CCOCC5)cc4OC)nc23)c1 , what pIC50 is on record?
Result: < 6.30

Request: Fill in the blank: the reported pIC50 of C=CC(=O)Nc1cccc(-c2cccc3cnc(Nc4ccc(NC5CCN(C)CC5)cc4)nc23)c1 is ____.
Result: 6.30 to 7.00

Request: Quick one: pIC50 for C=CC(=O)Nc1cccc(-c2cccc3cnc(Nc4ccc(N5CCN(CC)CC5)cc4)nc23)c1 ?
Result: < 6.30

Request: Return reported pIC50; argument: C=CC(=O)Nc1cccc(-c2cccc3cnc(Nc4ccc(OC5CCN(C)CC5F)cc4)nc23)c1 (centres unmarked)
Result: 6.30 to 7.00

Request: Reported pIC50, compound C=CC(=O)Nc1cccc(-c2cccc3cnc(Nc4ccc(N5CCN(C)CC5)cc4F)nc23)c1 : ____
Result: < 6.30

Request: Which pIC50 is reported for this compound? C=CC(=O)Nc1cccc(-c2cccc3cnc(Nc4ccc(N5CCN(C)CC5)cc4OC)nc23)c1
Result: < 6.30

Request: Look at this compound and give its reported pIC50. C=CC(=O)Nc1cccc(-c2cccc3cnc(Nc4ccc(N5CCN(CCO)CC5)cc4)nc23)c1
Result: 6.30 to 7.00

Where these numbers come from: patent US10172868B2
